Could you please report measured EC50 for the items listed next?
# TESTED_TARGET: CXCR7 (Homo sapiens, UniProt P25106)
# Construct: host or cells: CHO (PathHunter CHO-CXCR7 β-arrestin cells)
# Sequence (P25106 whole entry): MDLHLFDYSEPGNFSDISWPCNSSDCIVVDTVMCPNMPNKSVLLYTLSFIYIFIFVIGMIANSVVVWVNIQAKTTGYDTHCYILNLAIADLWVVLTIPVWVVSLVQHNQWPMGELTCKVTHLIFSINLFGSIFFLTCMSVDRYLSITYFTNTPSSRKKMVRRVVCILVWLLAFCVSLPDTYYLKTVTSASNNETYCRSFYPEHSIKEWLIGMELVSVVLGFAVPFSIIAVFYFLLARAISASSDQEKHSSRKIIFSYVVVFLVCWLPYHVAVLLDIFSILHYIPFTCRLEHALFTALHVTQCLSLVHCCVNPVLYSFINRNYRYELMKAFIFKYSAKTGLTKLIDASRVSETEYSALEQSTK
# EXPERIMENTAL_PROTOCOL: CXCR7 β-arrestin recruitment assay (PathHunter CHO-CXCR7, DiscoverX), agonistic assay
# Type: cell-based
# CONDITIONS_USED: agonistic assay; CHO CXCR7 β-arrestin cells; 90 min at 37° C.; chemiluminescence; read-out: β-Arrestin EC50
Non-standard residues stand in square brackets, D forms with d. Residues, ends and D or L forms follow the SMILES beside them. *: point of attachment. dPro(cis-4-NH2) = N[C@H]1CN[C@@H](C(=O)O)C1; Pro(3S-OH) = O=C(O)[C@H]1NCC[C@@H]1O; cisHyp = O=C(O)[C@@H]1C[C@H](O)CN1; dOrn = NCCC[C@@H](N)C(=O)O; dPip = O=C(O)[C@H]1CCCCN1; Bn = c1ccc(C*)cc1
# output: bare number, implied unit nM

QUERY: EC50 lookup needed for N=C(N)NCCC[C@@H]1NC(=O)[C@H](Cc2c[nH]c3ccccc23)NC(=O)[C@@H](Cc2ccccc2)NC(=O)[C@H](Cc2c[nH]c3ccccc23)NC(=O)[C@@H]2C[C@H](OCc3ccccc3)CN2C(=O)[C@H]2C[C@@H](N)CN2C1=O [compound 50] (cyclo(R[dPro(cis-4-NH2)][cisHyp](Bn)W[dF]W)) , thanks.
RESULT: 6.6

QUERY: Give the measured EC50 of CC[C@H](C)[C@@H]1NC(=O)[C@H]([C@@H](C)O)NC(=O)[C@H]2CCCN2C(=O)[C@H](Cc2c[nH]c3ccccc23)NC(=O)[C@H](CCCNC(=N)N)NC(=O)[C@@H](CCCN)NC1=O [compound 63, cyclo(-Ile-^DOrn-Arg-Trp-^DPro-Thr-)] (cyclo(I[dOrn]RW[dP]T)) .
RESULT: 23.3

QUERY: Can you look up the measured EC50 of CC[C@H](C)[C@@H]1NC(=O)[C@@H]2[C@@H](O)CCN2C(=O)[C@H]2CCCCN2C(=O)[C@H](Cc2c[nH]c3ccccc23)NC(=O)[C@H](CCCNC(=N)N)NC(=O)[C@@H](CCCNC(=N)N)NC1=O [Ex. 54] (cyclo(I[dR]RW[dPip][Pro(3S-OH)])) for me?
RESULT: 8.2

QUERY: Recorded EC50 for C[C@@H](O)[C@@H]1NC(=O)[C@H]([C@@H](C)O)NC(=O)[C@H]2CCCN2C(=O)[C@H](CCCNC(=N)N)NC(=O)[C@H](Cc2c[nH]c3ccccc23)NC(=O)[C@@H](CCCNC(=N)N)NC1=O [compound 19, cyclo(-Thr-^DArg-Trp-Arg-^DPro-Thr-)] (cyclo(R[dP]TT[dR]W)) , please?
RESULT: 17.2

====

I'd be grateful if you could share measured EC50 for these entries.
# TESTED_TARGET: CXCR7 (Homo sapiens, UniProt P25106)
# Construct: host or cells: CHO (PathHunter CHO-CXCR7 β-arrestin cells)
# EXPERIMENTAL_PROTOCOL: CXCR7 β-arrestin recruitment assay (PathHunter CHO-CXCR7, DiscoverX), agonistic assay
# Type: cell-based
# CONDITIONS_USED: agonistic assay; CHO CXCR7 β-arrestin cells; 90 min at 37° C.; chemiluminescence; read-out: β-Arrestin EC50
# Description: Lyophilized peptides were weighed on a Microbalance (Mettler MX5) and dissolved in DMSO to a final concentration of 10 mM unless otherwise stated. Stock solutions were kept at +4° C., and protected from light. 2.2 CXCR7 β-Arrestin Recruitment Assay The PathHunter CHO-CXCR7 (DiscoverX) assay was performed according to the manufacturer's protocol. […]
Non-standard residues stand in square brackets, D forms with d. Residues, ends and D or L forms follow the SMILES beside them. dPro(cis-4-NH2) = N[C@H]1CN[C@@H](C(=O)O)C1; Tic = O=C(O)[C@@H]1Cc2ccccc2CN1; Orn = NCCC[C@H](N)C(=O)O

QUERY: Report EC50 for NCCC[C@@H]1NC(=O)[C@H](Cc2c[nH]c3ccccc23)NC(=O)[C@@H](Cc2ccccc2)NC(=O)[C@H](Cc2c[nH]c3ccccc23)NC(=O)[C@@H]2Cc3ccccc3CN2C(=O)[C@H]2C[C@@H](N)CN2C1=O [Ex. 29] (cyclo([Orn][dPro(cis-4-NH2)][Tic]W[dF]W)) tested on CXCR7 (Homo sapiens, UniProt P25106).
RESULT: 26.1 nM

QUERY: Short answer please: EC50, CXCR7 (Homo sapiens, UniProt P25106), entry CC[C@H](C)[C@@H]1NC(=O)[C@H]([C@@H](C)O)NC(=O)[C@H]2CCCN2C(=O)[C@H]([C@@H](C)CC)NC(=O)[C@H](CCCNC(=N)N)NC(=O)[C@@H](CCCNC(=N)N)NC1=O [Ex. 1, cyclo(-Ile-^DArg-Arg-Ile-^DPro-Thr-)] (cyclo(I[dP]TI[dR]R))
RESULT: 79.7 nM

QUERY: # returns recorded EC50 (system: CXCR7 (Homo sapiens, UniProt P25106)) for C[C@@H](O)[C@@H]1NC(=O)[C@H]2CCCN2C(=O)[C@H](Cc2c[nH]c3ccccc23)NC(=O)[C@H](CCCNC(=N)N)NC(=O)[C@@H](CCCNC(=N)N)NC(=O)[C@H](Cc2c[nH]c3ccccc23)NC1=O [Ex. 20, cyclo(-Trp-^DArg-Arg-Trp-^DPro-Thr-)] (cyclo(RW[dP]TW[dR]))
RESULT: 538 nM

====

# TESTED_TARGET: CXCR7 (Homo sapiens, UniProt P25106)
# Construct: host or cells: CHO (PathHunter CHO-CXCR7 β-arrestin cells)
# EXPERIMENTAL_PROTOCOL: CXCR7 β-arrestin recruitment assay (PathHunter CHO-CXCR7, DiscoverX), agonistic assay
# Format: cell-based
# CONDITIONS_USED: agonistic assay; CHO CXCR7 β-arrestin cells; 90 min at 37° C.; chemiluminescence; read-out: β-Arrestin EC50
Non-standard residues stand in square brackets, D forms with d. Residues, ends and D or L forms follow the SMILES beside them. dPro(cis-4-NH2) = N[C@H]1CN[C@@H](C(=O)O)C1; 2Nal = N[C@@H](Cc1ccc2ccccc2c1)C(=O)O; Tic = O=C(O)[C@@H]1Cc2ccccc2CN1; Agb = N=C(N)NCC[C@H](N)C(=O)O; Dab = NCC[C@H](N)C(=O)O
MEASURED_ATTRIBUTE: pEC50
The quantity pEC50 is defined as the negative base-10 logarithm of the molar concentration.

QUERY: Requested read-out: pEC50. Entry: CC[C@H](C)[C@@H]1NC(=O)[C@H]([C@@H](C)O)NC(=O)[C@H]2CCCN2C(=O)[C@H](Cc2ccc3ccccc3c2)NC(=O)[C@H](CCCNC(=N)N)NC(=O)[C@@H](CCCNC(=N)N)NC1=O [compound 15, cyclo(-Ile-^DArg-Arg-2Nal-^DPro-Thr-)] (cyclo([2Nal][dP]TI[dR]R))
RESULT: 9.40

QUERY: Give its pEC50 value. Item: CC[C@H](C)[C@@H]1NC(=O)[C@H]([C@@H](C)O)NC(=O)[C@H]2CCCN2C(=O)[C@H](Cc2c[nH]c3ccccc23)NC(=O)[C@H](CCNC(=N)N)NC(=O)[C@@H](CCCNC(=N)N)NC1=O [Ex. 24, cyclo(-Ile-^DArg-Agb-Trp-^DPro-Thr-)] (cyclo([Agb]W[dP]TI[dR]))
RESULT: 7.65

QUERY: Using the record for NCC[C@@H]1NC(=O)[C@H](Cc2c[nH]c3ccccc23)NC(=O)[C@@H](Cc2ccccc2)NC(=O)[C@H](Cc2c[nH]c3ccccc23)NC(=O)[C@@H]2Cc3ccccc3CN2C(=O)[C@H]2C[C@@H](N)CN2C1=O [compound 30] (cyclo([Dab][dPro(cis-4-NH2)][Tic]W[dF]W)) , report its pEC50.
RESULT: 7.87
